Hello, the source for this data is patent US20130177981A1, in case you need it.

For each record, write down the corresponding Ki.
- targetOrTestSystem: T1, gp41-5 (HIV)
- T1 construct: also called gp41-5 protein construct; five-helix bundle protein
- methodNotes: competition FP; displacement of Flu-C38 from gp41-5
Where no end group is shown, it is not given here. [ ]: non-standard residue; d: D form. APC = trans-3-aminopyrrolidine-4-carboxylic acid; ACPC = trans-2-aminocyclopentanecarboxylic acid; β3hR = N=C(N)NCCC[C@H](N)CC(=O)O; β3hT = C[C@@H](O)[C@H](N)CC(=O)O; β3hE = N[C@@H](CCC(=O)O)CC(=O)O; β3hA = C[C@H](N)CC(=O)O

Exercise: Bench note: what Ki did Ac-TTWEAWDRAIAEYA[β3hA]RIE[β3hA]LI[β3hR]AAQ[β3hE]QQ[β3hE]KNE[β3hA]AL[β3hR]EL (also called (α+α/β)-peptide 6; oligomer 6) [α/β-peptide 6] show?
Solution: 15 nM

Exercise: Bench note: what Ki did Ac-TTWEAWDRAIAEYAARIEALIRAAQEQQEKNEAALREL (also called T-2635; CHR α-peptide 3) [α-peptide 3] show?
Solution: < 0.2 nM

Exercise: Bench note: what Ki did Ac-[β3hT]TWE[ACPC]WD[APC]AIA[β3hE]YA[ACPC]RIE[ACPC]LI[APC]AAQ[β3hE]QQ[β3hE]KNE[ACPC]AL[APC]EL-NH2 (Made from 9 by replacing the three β3-hArg residues with APC; also called foldamer 10) [α/β-peptide 10] show?
Solution: 9 nM

Exercise: Bench note: what Ki did Ac-A[β3hE]YA[ACPC]RIE[ACPC]LI[APC]AAQ[β3hE]QQ[β3hE]KNE[ACPC]AL[APC]EL (also called oligomer 11; truncated α/β-peptide 11) [α/β-peptide 11] show?
Solution: > 10000 nM

Exercise: Bench note: what Ki did Ac-[β3hT]TWE[β3hA]WD[β3hR]AIA[β3hE]YA[β3hA]RIE[β3hA]LI[β3hR]AAQ[β3hE]QQ[β3hE]KNE[β3hA]AL[β3hR]EL (also called oligomer 4) [α/β-peptide 4] show?
Solution: 3800 nM

Exercise: Bench note: what Ki did Ac-[β3hT]TWE[ACPC]WD[β3hR]AIA[β3hE]YA[ACPC]RIE[ACPC]LI[β3hR]AAQ[β3hE]QQ[β3hE]KNE[ACPC]AL[β3hR]EL (not fully specified, to be checked against the listing) [α/β-peptide 9] show?
Solution: 83 nM

Exercise: Bench note: what Ki did Ac-TTWEAWDRAIAEYAARIEALI[β3hR]AAQ[β3hE]QQ[β3hE]KNE[β3hA]AL[β3hR]EL (Chimera of α-peptide 3 and α/β-peptide 4; also called oligomer 5) [(α+α/β)-peptide 5] show?
Solution: < 0.2 nM

Exercise: Bench note: what Ki did Ac-TTWEAWDRAIAEYA[ACPC]RIE[ACPC]LI[β3hR]AAQ[β3hE]QQ[β3hE]KNE[ACPC]AL[β3hR]EL (also: other residues as in 6, also called oligomer 7) [α/β-peptide 7] show?
Solution: 0.4 nM
